# Procedure Details: nuclear p53 accumulation, HPV+ cells – imaging, p53-positive nuclei imaging, 24 h, 48 h (AID 1508601)
# Test Settings: 24/48 h, measured here: cell number at 24 h, Library stock concentration: 2 mM
The whole screen tested about 5,700 compounds, of which about 85 (1%) were called active. The full list was thinned out, with actives kept by preference.
Could you please report measured nuclei count, normalised for the items listed next?
Return type: number; implicit unit %.

The compound identified as CCC(=O)N1CCN(c2ccc(-n3c(=O)ccc4cnc5ccc(-c6cnc7ccccc7c6)cc5c43)cc2C(F)(F)F)CC1 registered its nuclei count, normalised at 55.8

response.value for O=C(NOCC(O)CO)c1ccc(F)c(F)c1Nc1ccc(I)cc1F (stereo not given) (field: nuclei count, normalised) = 91.9

The compound listed as COc1ccc(N(C(=O)Nc2c(C)cccc2C)c2cc(Nc3ccc(N4CCN(C)CC4)cc3OC)ncn2)c(OC)c1 has a reported nuclei count, normalised of 82.3

Documented nuclei count, normalised of COc1cc(OC)cc(-c2ccc3ncc4ccc(=O)n(-c5ccc(N6CCNCC6)c(C(F)(F)F)c5)c4c3c2)c1 : 101

Consider O=C1NCCCc2c1oc1ccc(O)cc21 . Its measured nuclei count, normalised is 96.6
